- assayedTarget: human 5-HT4(a) (Homo sapiens)
- Sequence (Q13639 1-387 isoform Q13639-2): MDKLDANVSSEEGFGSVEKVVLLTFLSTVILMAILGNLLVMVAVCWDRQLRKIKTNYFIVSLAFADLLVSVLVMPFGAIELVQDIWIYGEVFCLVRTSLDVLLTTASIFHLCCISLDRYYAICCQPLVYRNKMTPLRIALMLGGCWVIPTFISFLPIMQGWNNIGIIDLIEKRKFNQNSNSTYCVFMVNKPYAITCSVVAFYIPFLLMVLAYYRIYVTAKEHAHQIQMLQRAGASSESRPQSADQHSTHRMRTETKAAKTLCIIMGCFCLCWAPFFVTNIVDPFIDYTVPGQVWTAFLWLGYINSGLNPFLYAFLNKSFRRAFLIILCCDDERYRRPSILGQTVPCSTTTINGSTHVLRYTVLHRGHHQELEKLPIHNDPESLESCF
- testMethodNotes: Evaluation of agonistic activity in CHO-K1 cells expressing human 5-HT4(a) (GeneBlAzer HTR4-CRE-bla CHO-K1, beta-lactamase reporter)
- conditionsUsed: CHO-K1 cells stably expressing human 5-HT4(a)
pEC50: −log10 of the molar value.
measuredMetric: pEC50

A selection of reference data follows.
CCCc1cc(N2CCC(NC(C)=O)C2)nc(Nc2cccc(C#N)c2)n1 (stereo not drawn) = 10.12
CCCc1cc(N2CC[C@H](NC3CCC3)C2)nc(Nc2cccc(C#N)c2)n1 = 11.00
CCCc1cc(N2CC[C@H](NC(C)=O)C2)nc(Nc2ccc(C)c(Cl)c2)n1 = 10.40
CCCc1cc(N2CC[C@H](N)C2)nc(Nc2ccc(N)c(C(F)(F)F)c2)n1 = 11.57
CCCc1cc(N2CC[C@H](NCC3CC3)C2)nc(Nc2cccc(C#N)c2)n1 = 11.82

I = CCCCc1cc(N2CC[C@H](NCC)C2)nc(Nc2ccc(F)c(N)c2)n1
II = CCCc1cc(N2CCC[C@H]2C)nc(Nc2ccc(N)c(C#N)c2)n1
III = CCCCc1cc(N2CCC[C@H]2CO)nc(Nc2cccc(C#N)c2)n1
IV = CCCc1cc(N2CC[C@H](NC)C2)nc(Nc2ccc(N)c(C#N)c2)n1
Req: Output the entries ranked by pEC50 from maximum down to minimum. Please list each label once, in the requested order.
Resp: IV, I, III, II
(IV: 11.85, I: 11.60, III: 11.37, II: 10.60)
